# STUDY_SYSTEM: ToxN (ToxNEc) (Escherichia coli strain 680, UniProt PDB:7D8O_1 1-187)
# PROTOCOL_DESCRIPTION: ITC; one-site fit; ITC: 50 mM KH2PO4 pH 7, 100 mM KCl, 15°C; 2-5 uM RNA in cell, 35-50 uM ToxN in syringe
# CONDITION_SET: protein: recombinant; tags: N-terminal His6 (pCold II); pseudoknot with 5' single-stranded overhang
PROPERTY_MEASURED: pKd
The value called pKd is obtained by taking minus log10 of the concentration in mol/L.

Noted for GGAUUCAGGUGAUUUGCUACCUUUAAGUGCA (structured_RNA) [Δ3'-ToxI] : its pKd reads 6.61
